Target: T1, recombinant soluble murine C4.4a (mouse, UniProt Q91YK8 33-343, limits assumed)
T1 construct: also called mouse C4.4a; mC4.4a
T1 sequence (looked up): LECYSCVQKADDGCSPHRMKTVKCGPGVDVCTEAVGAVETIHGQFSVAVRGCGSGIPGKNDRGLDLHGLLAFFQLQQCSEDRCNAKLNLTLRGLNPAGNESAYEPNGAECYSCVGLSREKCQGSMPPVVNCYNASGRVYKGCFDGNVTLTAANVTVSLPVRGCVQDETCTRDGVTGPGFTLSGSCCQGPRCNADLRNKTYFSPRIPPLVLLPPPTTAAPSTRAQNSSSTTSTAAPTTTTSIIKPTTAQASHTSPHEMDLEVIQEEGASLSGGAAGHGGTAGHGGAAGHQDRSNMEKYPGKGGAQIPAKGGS
Assay: direct ELISA, Fab supernatant on coated mouse C4.4a, signal normalized to Fab quantity
Procedure: Cultures were diluted in 10% Smart Block in PBST and bound to the MTP plates for 1 h at 20° C. After washing with PBST, captured antibodies were incubated with a HRP-coupled anti-lambda antibody (Sigma, A5175) and detected by incubating the plate with 10 μM amplex red substrate (Invitrogen, A12222) for 30 minutes at 20° C. in the dark followed by fluorescence measurement. […]

- binder: "M31-B01 Fab LC W91F (Fab, V domains shown, Fab with 3×HA-tag and hexa-histidine tag at the C-terminus of the heavy chain, culture supernatant) VH: EVQLLESGGGLVQPGGSLRLSCAASGFTFSNAWMSWVRQAPGKGLEWVSYISSSGSTIYYADSVKGRFTISRDNSKNTLYLQMNSLRAEDTAVYYCAREGLWAFDYWGQGTLVTVTS VL: QSVLTQPPSASGTPGQRVTISCTGSSSNIGAGYVVHWYQQLPGTAPKLLIYDNNKRPSGVPDRFSGSKSGTSASLAISGLRSEDEADYYCAAFDDRLNGPVFGGGTKLTVLG"
  normalized affinity signal (average): 2.53
